Below, each entry is listed with its recorded pIC50.
Molecular target: NAD-dependent protein deacetylase sirtuin-1 (Homo sapiens, UniProt Q96EB6)
Experiment: Inhibition of human recombinant SIRT1 using fluor de Lys as substrate after 1 hr by fluorimeter analysis
pIC50: −log10 of the molar value.
assay-metric: pIC50

COc1ccc(Cn2c(-c3ccccc3)c(Cc3c(O)ccc4ccccc34)c(=O)[nH]c2=S)cc1: 4.24
CCCOc1ccc(Cn2c(-c3ccccc3)c(Cc3c(OC)ccc4ccccc34)c(=O)[nH]c2=S)cc1: 4.21
CCOc1ccc(Cn2c(-c3ccccc3)c(Cc3ccccc3)c(=O)[nH]c2=S)cc1: 4.17

====

Biological target: NAD-dependent protein deacetylase sirtuin-1 (Homo sapiens) (UniProt Q96EB6)
Sequence (Q96EB6 whole entry): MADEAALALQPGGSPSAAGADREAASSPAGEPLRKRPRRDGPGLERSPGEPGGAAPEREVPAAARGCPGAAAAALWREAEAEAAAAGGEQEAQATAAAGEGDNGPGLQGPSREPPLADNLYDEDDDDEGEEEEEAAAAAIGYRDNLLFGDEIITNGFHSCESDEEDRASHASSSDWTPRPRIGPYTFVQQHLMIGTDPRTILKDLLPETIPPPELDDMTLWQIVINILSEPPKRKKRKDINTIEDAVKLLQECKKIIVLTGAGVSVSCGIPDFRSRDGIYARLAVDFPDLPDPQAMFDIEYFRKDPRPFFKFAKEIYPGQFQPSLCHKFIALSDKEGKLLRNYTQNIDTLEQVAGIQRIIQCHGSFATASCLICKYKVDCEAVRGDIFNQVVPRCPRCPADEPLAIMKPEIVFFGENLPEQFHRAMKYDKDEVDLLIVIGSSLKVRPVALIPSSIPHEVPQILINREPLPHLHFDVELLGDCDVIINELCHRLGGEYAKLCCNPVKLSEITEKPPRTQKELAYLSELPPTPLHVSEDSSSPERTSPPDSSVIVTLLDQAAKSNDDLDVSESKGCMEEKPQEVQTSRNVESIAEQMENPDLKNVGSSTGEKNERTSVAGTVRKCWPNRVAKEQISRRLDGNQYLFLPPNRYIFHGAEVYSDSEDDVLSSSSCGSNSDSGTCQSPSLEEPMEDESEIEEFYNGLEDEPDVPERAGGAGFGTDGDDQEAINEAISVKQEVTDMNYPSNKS
Test: Inhibition of human recombinant SIRT1 using fluor de Lys as substrate at 60 uM after 1 hr by fluorimeter analysis
assay-metric: inhibition (%)

COc1ccc2ccccc2c1Cc1c(-c2ccccc2)n(C)c(=S)[nH]c1=O: 36.2
O=c1[nH]c(=S)n(Cc2ccccc2)c(-c2ccccc2)c1Cc1c(OCc2ccccc2)ccc2ccccc12: 25.4
COc1ccc(Cn2c(-c3ccccc3)c(Cc3c(OC)ccc4ccccc34)c(=O)[nH]c2=S)cc1: 8.8
COc1ccc(Cn2c(-c3ccccc3)c(Cc3c(OCc4ccccc4)ccc4ccccc34)c(=O)[nH]c2=S)cc1: 29.8
CCOc1ccc(Cn2c(-c3ccccc3)c(Cc3ccccc3)c(=O)[nH]c2=S)cc1: 35
O=c1cc(-c2ccccc2)n(Cc2ccccc2)c(=S)[nH]1: 1.8
CCOc1ccc(Cn2c(-c3ccccc3)c(Cc3c(OC)ccc4ccccc34)c(=O)[nH]c2=S)cc1: 19.3
CCCOc1ccc(Cn2c(-c3ccccc3)c(Cc3c(OCc4ccccc4)ccc4ccccc34)c(=O)[nH]c2=S)cc1: 22.8
O=c1[nH]c(=S)n(Cc2ccccc2)c(-c2ccccc2)c1Cc1ccccc1: 23

====

Biological target: NAD-dependent protein deacetylase sirtuin-2 (Homo sapiens, UniProt Q8IXJ6)
Sequence (Q8IXJ6 whole entry): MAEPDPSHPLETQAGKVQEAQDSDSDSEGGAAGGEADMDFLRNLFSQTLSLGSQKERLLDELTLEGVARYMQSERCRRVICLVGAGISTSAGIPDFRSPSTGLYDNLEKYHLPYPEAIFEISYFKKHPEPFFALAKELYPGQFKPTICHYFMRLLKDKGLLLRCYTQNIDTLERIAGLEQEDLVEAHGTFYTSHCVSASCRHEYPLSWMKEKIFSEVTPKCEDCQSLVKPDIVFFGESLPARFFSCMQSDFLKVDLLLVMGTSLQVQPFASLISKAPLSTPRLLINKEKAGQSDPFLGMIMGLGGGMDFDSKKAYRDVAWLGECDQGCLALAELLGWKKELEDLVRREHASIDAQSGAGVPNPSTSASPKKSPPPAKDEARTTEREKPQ
Experiment: Inhibition of human recombinant SIRT2 using fluor de Lys as substrate after 1 hr by fluorimeter analysis
assay-metric: IC50

CCOc1ccc(Cn2c(-c3ccccc3)c(Cc3c(OC)ccc4ccccc34)c(=O)[nH]c2=S)cc1: 16 µM
CCCOc1ccc(Cn2c(-c3ccccc3)c(Cc3c(OC)ccc4ccccc34)c(=O)[nH]c2=S)cc1: 11 µM
CCOc1ccc(Cn2c(-c3ccccc3)c(Cc3ccccc3)c(=O)[nH]c2=S)cc1: 10 µM
CCCOc1ccc(Cn2c(-c3ccccc3)c(Cc3c(O)ccc4ccccc34)c(=O)[nH]c2=S)cc1: 6 µM
CCOc1ccc(Cn2c(-c3ccccc3)c(Cc3c(O)ccc4ccccc34)c(=O)[nH]c2=S)cc1: 4 µM
COc1ccc(Cn2c(-c3ccccc3)c(Cc3c(O)ccc4ccccc34)c(=O)[nH]c2=S)cc1: 12 µM
